System: rat JNK2 mRNA
protocol: Northern assay of rat JNK2 (p54a) mRNA in A10 aortic smooth muscle cells
Assay type: cell-based
Parameters: concentration or dose not given beside the values
settings: rat JNK2 (p54a) mRNA in A10 cells
Strand notation (5' to 3'): a small letter for the sugar, then the base; units joined by * are phosphorothioate-linked, units joined directly phosphodiester-linked; [ ] holds rarer units or linkages, { } end groups; capitals alone tell only the bases. e = 2'-O-(2-methoxyethyl) (MOE); [5mC] = 5-methylcytosine; d = 2'-deoxy (DNA)
parameterMeasured: % INHIBITION (%)

substance | observedMeasurement
18254 (antisense eTe[5mC]eAeTeG*dA*dT*dG*dT*dA*dG*dT*dG*dT*d[5mC]*eAeTeAe[5mC]eA) [compound 18254] | 80
10260 (antisense eAeTe[5mC]eTeG*d[5mC]*dG*dA*dG*dG*dT*dT*dT*d[5mC]*dA*eTe[5mC]eGeGe[5mC]) [compound 10260] | 59
18257 (antisense eGeAeTeAeT*d[5mC]*dA*dA*d[5mC]*dA*dT*dT*d[5mC]*dT*d[5mC]*e[5mC]eTeTeGeT) [compound 18257] | 68
18261 (antisense e[5mC]e[5mC]eAe[5mC]e[5mC]*dA*dG*d[5mC]*dT*d[5mC]*d[5mC]*d[5mC]*dA*dT*dG*eTeGe[5mC]eTe[5mC]) [compound 18261] | 53
18265 (DNA eTeGeTe[5mC]eA*dG*d[5mC]*dT*d[5mC]*dT*dA*d[5mC]*dA*dT*dT*eAeGeGe[5mC]eA; antisense) [compound 18265] | 62
18266 (DNA eAeGeTeAeA*dG*d[5mC]*d[5mC]*d[5mC]*dG*dG*dT*d[5mC]*dT*d[5mC]*e[5mC]eTeAeAeG; antisense) [compound 18266] | 34
18262 (antisense e[5mC]eAeGeTeT*dA*d[5mC]*dA*d[5mC]*dA*dT*dG*dA*dT*d[5mC]*eTeGeTe[5mC]eA) [compound 18262] | 50
18255 (antisense eTeGeTeGeG*dT*dG*dT*dG*dA*dA*d[5mC]*dA*d[5mC]*dA*eTeTeTeAeA) [compound 18255] | 79
18259 (antisense eGe[5mC]eTe[5mC]eA*dG*dT*dG*dG*dA*d[5mC]*dA*dT*dG*dG*eAeTeGeAeG) [compound 18259] | 85
18267 (DNA eAeAeAeTeG*dG*dA*dA*dA*dA*dG*dG*dA*d[5mC]*dA*eGe[5mC]eAeGe[5mC]; antisense) [compound 18267] | 16
18256 (antisense e[5mC]e[5mC]eAeTeA*dT*dG*dA*dA*dT*dA*dA*d[5mC]*d[5mC]*dT*eGeAe[5mC]eAeT) [compound 18256] | 20
18263 (antisense eAeAeGeAeG*dG*dA*dT*dT*dA*dA*dG*dA*dG*dA*eTeTeAeTeT) [compound 18263] | 37
18264 (DNA eAeGe[5mC]eAeG*dA*dG*dT*dG*dA*dA*dA*dT*dA*d[5mC]*eAeAe[5mC]eTeT; antisense) [compound 18264] | 52
18258 (antisense eGe[5mC]eTeTe[5mC]*dG*dT*d[5mC]*d[5mC]*dA*d[5mC]*dA*dG*dA*dG*eAeTe[5mC]e[5mC]eG) [compound 18258] | 81
